- Tested on: JJN-3 (NIK translocated) multiple myeloma cells
- ASSAY COMMENT: Antiproliferative activity on JJN-3 multiple myeloma cells (CellTiter-Glo)
- Type: cell-based, human
- EXPERIMENTAL SETUP: Homo sapiens, JJN-3, 96 h, JJN-3 (NIK translocated) cells, 96 hr treatment, averaged values, read-out: JJN-3 Proliferation inhibition (IC50 (nM))
Attribute: log10(IC50)
ENDPOINT: log10(IC50) (log10 of the value in nM)

| MOLECULE | log10(IC50) |
| --- | --- |
| COc1ncccc1Nc1nccc(-c2cc(C#N)c3c(c2)C(C)(CNC(C)=O)CN3)n1 (stereo not drawn) [Compound 115] | 2.87 |
| C[C@]1(CO)CNc2c(C#N)cc(-c3ccnc(Nc4cccnc4OCC4CC4)n3)cc21 [Compound 45] | 2.29 |
| Cc1cnc(OCC2CC2)c(Nc2nccc(-c3cc(C#N)c4c(c3)[C@@](C)(CO)CN4)n2)c1 [Compound 86] | 3.07 |
| CC(C)OCCOc1ncccc1Nc1nccc(-c2cc(C#N)c3c(c2)[C@@](C)(CO)CN3)n1 [Compound 19] | 2.96 |
| Cc1cc(Nc2nccc(-c3cc(C#N)c4c(c3)[C@@](C)(CO)CN4)n2)c(=O)n(CC(C)N2CCOCC2)c1 (mixture of isomers) [Compound 18i] | 1.69 |
| Cn1cc(Cl)cc(Nc2nccc(-c3cc(C#N)c4c(c3)[C@@](C)(CO)CN4)n2)c1=O [Compound 13i] | 1.49 |
| COc1nc(C2CCOCC2)ncc1Nc1nccc(-c2cc(C#N)c3c(c2)[C@@](C)(CO)CN3)n1 [Compound 140] | 2.63 |
| CC1(CO)CNc2c(C#N)cc(-c3ccnc(Nc4cccnc4C(F)(F)F)n3)cc21 (stereo not drawn) [Compound 31] | 3.30 |
| COc1cnccc1Nc1nccc(-c2cc(C#N)c3c(c2)[C@@](C)(CO)CN3)n1 [Compound 20] | 3.20 |
| Cc1cc(Nc2nccc(-c3cc(C#N)c4c(c3)[C@@](C)(CO)CN4)n2)c(=O)n(CCC2CC2)c1 [Compound 5i] | 2.45 |
| C[C@]1(CO)CNc2c(C#N)cc(-c3ccnc(Nc4cccnc4O[C@@H]4CCCOC4)n3)cc21 [Compound 27] | 3.18 |
| COc1ncc(Cl)cc1Nc1ncc(F)c(-c2cc(C#N)c3c(c2)C(C)(CO)CN3)n1 (stereo not drawn) [Compound 102] | 3.20 |
| COc1nc(CCC(=O)N(C)C)ccc1Nc1nccc(-c2cc(C#N)c3c(c2)[C@@](C)(CO)CN3)n1 [Compound 49] | 1.54 |
| CCOc1ncccc1Nc1nccc(-c2cc(C#N)c3c(c2)C(C)(CO)CN3)n1 (stereo not drawn) [Compound 16] | 2.39 |
| Cc1ncc(CO)cc1Nc1nccc(-c2cc(C#N)c3c(c2)[C@@](C)(CO)CN3)n1 [Compound 169] | 2.42 |

---

Respond with 1 (yes) for melting point values of 200 °C and above, 0 (no) for values below.

| COMPOUND | ASSIGNED CATEGORY |
| --- | --- |
| CC1(COc2ncc(C#N)cc2Nc2nccc(-c3cc(C#N)c4c(c3)[C@@](C)(CO)CN4)n2)COC1 | 0 (no) |
| CC1(CO)CNc2c(C#N)cc(-c3nc(Nc4cccnc4OC4CCOCC4)ncc3F)cc21 (stereo not drawn) | 1 (yes) |
| C[C@]1(CO)CNc2c(C#N)cc(-c3ccnc(Nc4cc(Cl)cnc4C4CC4)n3)cc21 | 1 (yes) |
| Cc1cnc(OCC2CN(C)CCO2)c(Nc2nccc(-c3cc(C#N)c4c(c3)[C@@](C)(CO)CN4)n2)c1 (single isomer, unassigned) [Compound 151] | 0 (no) |
| Cc1cnc(C2CCOCC2)c(Nc2nccc(-c3cc(C#N)c4c(c3)[C@@](C)(CO)CN4)n2)c1 | 1 (yes) |
| Cc1cc(Nc2nccc(-c3cc(C#N)c4c(c3)[C@@](C)(CO)CN4)n2)c(=O)n(CC(C)N2CCOCC2)c1 (mixture of isomers) [Compound 18i] | 1 (yes) |
| Cn1cc(Cl)cc(Nc2nccc(-c3cc(C#N)c4c(c3)[C@@](C)(CO)CN4)n2)c1=O [Compound 13i] | 1 (yes) |
| COc1nc(C2CCOCC2)ccc1Nc1nccc(-c2cc(C#N)c3c(c2)[C@@](C)(CO)CN3)n1 | 1 (yes) |
| Cc1cnc(C#N)cc1Nc1nccc(-c2cc(C#N)c3c(c2)[C@@](C)(CO)CN3)n1 | 1 (yes) |
| Cc1cc(Nc2nccc(-c3cc(C#N)c4c(c3)[C@@](C)(CO)CN4)n2)c(C)cn1 | 1 (yes) |
| Cc1cnc(OCC2COCCN2C)c(Nc2nccc(-c3cc(C#N)c4c(c3)[C@@](C)(CO)CN4)n2)c1 (single isomer, unassigned) [Compound 148] | 0 (no) |
| COc1ncc(Cl)cc1Nc1ncc(F)c(-c2cc(C#N)c3c(c2)[C@@](C)(CO)CN3)n1 | 1 (yes) |
| COCCOc1nc(C(F)(F)F)ccc1Nc1nccc(-c2cc(C#N)c3c(c2)[C@@](C)(CO)CN3)n1 | 0 (no) |
